meta.source: paper PMC9482650

target: LAP2, Q96RT1; experiment: holdup assay; design: key: below the threshold = too weak to quantify, mostly under pKd 3.1 to 4; settings: plain residues with an end cap or a label only (N-terminal biotin on a linker: ado-ado)
Sequence (Q96RT1 other isoform, or with tags, fused parts or gaps): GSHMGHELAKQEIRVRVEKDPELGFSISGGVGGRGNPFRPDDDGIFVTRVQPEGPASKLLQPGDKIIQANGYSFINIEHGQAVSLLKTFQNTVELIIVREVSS
Result type: pKd

{"columns": ["Binder", "pKd"],
 "data": [
  ["NVYGIESVKI [GRIA2, P42262]", 3.56],
  ["ARGPPRESEV [FAM110D, Q8TAY7]", 4.37],
  ["GIKKITSTAL [RPS6KA3, P51812]", "below the threshold"],
  ["EDPRVEVTQF [SLC22A9, Q8IVM8]", "below the threshold"],
  ["STKRKLASAV [NCF1, P14598]", "below the threshold"],
  ["NIAESLESLV [PTPRZ1, P23471]", 4.25]
]}

input: Given the binder DFLSTFHIRI [CIB2, O75838] , what is its reported pKd?
output: below the threshold

input: pKd for EDLEDEWEVI [TECPR2, O15040] ?
output: below the threshold
